Target: ROCK2 (Homo sapiens)
Sequence (O75116 whole entry, species assumed): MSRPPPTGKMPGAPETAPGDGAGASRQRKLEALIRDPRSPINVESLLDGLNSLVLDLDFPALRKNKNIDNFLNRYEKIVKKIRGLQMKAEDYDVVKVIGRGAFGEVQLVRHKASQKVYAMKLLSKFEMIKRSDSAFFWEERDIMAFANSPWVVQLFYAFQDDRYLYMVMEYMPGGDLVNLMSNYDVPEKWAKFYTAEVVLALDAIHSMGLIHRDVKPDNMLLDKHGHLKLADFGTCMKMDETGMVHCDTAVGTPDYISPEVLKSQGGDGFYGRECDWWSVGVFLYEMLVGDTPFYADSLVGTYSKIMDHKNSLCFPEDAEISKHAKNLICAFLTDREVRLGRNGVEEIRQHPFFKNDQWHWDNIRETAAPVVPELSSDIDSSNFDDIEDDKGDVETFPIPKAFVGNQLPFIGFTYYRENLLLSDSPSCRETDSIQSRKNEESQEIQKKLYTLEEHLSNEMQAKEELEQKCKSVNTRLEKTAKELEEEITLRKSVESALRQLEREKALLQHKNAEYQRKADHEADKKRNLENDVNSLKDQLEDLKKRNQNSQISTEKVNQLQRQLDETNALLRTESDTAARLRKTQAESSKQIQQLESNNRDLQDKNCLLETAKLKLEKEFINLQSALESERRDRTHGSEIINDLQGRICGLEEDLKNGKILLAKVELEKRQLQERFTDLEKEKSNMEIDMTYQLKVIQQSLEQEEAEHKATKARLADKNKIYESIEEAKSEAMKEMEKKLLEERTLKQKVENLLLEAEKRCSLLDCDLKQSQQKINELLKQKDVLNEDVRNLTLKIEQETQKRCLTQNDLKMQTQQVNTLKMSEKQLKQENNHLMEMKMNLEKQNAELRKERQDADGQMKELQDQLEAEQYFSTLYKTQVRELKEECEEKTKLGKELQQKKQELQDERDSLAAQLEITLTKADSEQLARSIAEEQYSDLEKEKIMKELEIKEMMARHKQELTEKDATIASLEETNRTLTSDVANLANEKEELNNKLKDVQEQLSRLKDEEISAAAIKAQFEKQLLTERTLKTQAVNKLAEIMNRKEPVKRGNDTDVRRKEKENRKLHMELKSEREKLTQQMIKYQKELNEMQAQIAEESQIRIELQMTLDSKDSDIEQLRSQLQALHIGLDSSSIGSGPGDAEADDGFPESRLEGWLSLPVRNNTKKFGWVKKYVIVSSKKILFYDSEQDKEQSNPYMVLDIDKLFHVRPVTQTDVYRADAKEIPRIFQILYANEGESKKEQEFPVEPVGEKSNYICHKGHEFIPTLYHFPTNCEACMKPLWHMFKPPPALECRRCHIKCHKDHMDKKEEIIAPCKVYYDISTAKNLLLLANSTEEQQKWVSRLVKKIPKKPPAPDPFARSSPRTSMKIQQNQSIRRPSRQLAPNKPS
Structures can show the parent of a compound that is named as a salt.
readout-name: IC50

Consider the reported IC50 for these molecules:
- molecule: "COc1cc(F)cc(Cn2ccn(-c3ccc(-c4cn[nH]c4)c(OC)c3)c2=O)c1"
  readout-name: "IC50"
  value: "2.1 to 20 nM"
- molecule: "COc1cc(C(C)N2CCN(c3ccc(-c4cn[nH]c4)c(OC)n3)C2=O)ccc1F (single isomer, unassigned) [Example 230]"
  readout-name: "IC50"
  value: "< 2 nM"
- molecule: "CC1(C)CN(c2ccc(-c3cn[nH]c3)cn2)C(=O)N1Cc1cccc(OCC2CC2)c1"
  readout-name: "IC50"
  value: "2.1 to 20 nM"
- molecule: "CCc1cc(N2CCN(Cc3cccc(OC)c3)C2=O)ccc1-c1cn[nH]c1"
  readout-name: "IC50"
  value: "2.1 to 20 nM"
- molecule: "COc1cc(F)cc(C(C)N2CCN(c3ccc(-c4cn[nH]c4)cc3)C2=O)c1 (single isomer, unassigned) [Example 197]"
  readout-name: "IC50"
  value: "< 2 nM"
- molecule: "COc1nc(-n2ccn(CC3CCCCC3)c2=O)ccc1-c1cn[nH]c1"
  readout-name: "IC50"
  value: "20.1 to 200 nM"
- molecule: "COc1cccc(CN2CCN(c3ccc(-c4ccnc(N)c4)cc3)C2=O)c1 [Example 62, TFA]"
  readout-name: "IC50"
  value: "20.1 to 200 nM"

# ---- query molecule ----
Q: Lookup: IC50 / ROCK2 (Homo sapiens) / COc1nc(N2CCN(Cc3cc(F)ccc3F)C2=O)ccc1-c1cn[nH]c1
Result: 2.1 to 20 nM

Data provenance: patent US10123993B2
